System under test: hERG channel (Homo sapiens (Human))
Sequence (Q12809 whole entry): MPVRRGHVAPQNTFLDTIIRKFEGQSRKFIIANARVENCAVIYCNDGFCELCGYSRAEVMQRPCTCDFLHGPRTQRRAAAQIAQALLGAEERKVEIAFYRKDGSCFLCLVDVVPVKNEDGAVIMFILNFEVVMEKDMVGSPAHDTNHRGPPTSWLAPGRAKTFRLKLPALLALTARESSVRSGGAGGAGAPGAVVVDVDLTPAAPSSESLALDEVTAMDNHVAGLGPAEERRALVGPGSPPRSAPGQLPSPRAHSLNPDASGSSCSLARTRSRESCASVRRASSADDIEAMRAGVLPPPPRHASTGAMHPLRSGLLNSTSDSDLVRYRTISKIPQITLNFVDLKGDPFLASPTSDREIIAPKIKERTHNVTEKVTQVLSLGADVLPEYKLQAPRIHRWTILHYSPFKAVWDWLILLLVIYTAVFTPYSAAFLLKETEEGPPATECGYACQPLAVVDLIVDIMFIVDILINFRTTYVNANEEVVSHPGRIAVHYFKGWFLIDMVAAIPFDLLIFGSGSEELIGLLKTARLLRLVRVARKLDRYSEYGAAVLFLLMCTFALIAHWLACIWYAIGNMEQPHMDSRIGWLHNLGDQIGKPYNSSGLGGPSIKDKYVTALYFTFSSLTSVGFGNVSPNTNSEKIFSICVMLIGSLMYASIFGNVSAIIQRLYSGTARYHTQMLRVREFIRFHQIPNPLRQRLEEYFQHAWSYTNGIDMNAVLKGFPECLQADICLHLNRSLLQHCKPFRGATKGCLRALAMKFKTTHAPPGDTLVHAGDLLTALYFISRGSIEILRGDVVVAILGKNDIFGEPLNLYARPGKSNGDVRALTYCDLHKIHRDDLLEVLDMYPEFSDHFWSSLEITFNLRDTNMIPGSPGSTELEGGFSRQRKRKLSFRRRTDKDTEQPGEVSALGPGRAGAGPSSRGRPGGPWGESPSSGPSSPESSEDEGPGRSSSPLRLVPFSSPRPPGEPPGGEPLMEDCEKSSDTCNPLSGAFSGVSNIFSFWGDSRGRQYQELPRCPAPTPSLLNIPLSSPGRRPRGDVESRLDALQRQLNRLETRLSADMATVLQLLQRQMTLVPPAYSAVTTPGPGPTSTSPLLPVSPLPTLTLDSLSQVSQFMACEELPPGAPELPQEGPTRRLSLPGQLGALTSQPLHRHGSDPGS
Assay text: [3H]Dofetilide binding assay, HEK-293 cell membrane preparation
Parameter measured: Ki (nM)
Write it as a number; the unit nM goes unstated.

Given O=[N+]([O-])c1ccc(CCCNC(CF)Cc2ccc(F)cc2)cc1 (stereo not shown) [Compound 123] , state its recorded Ki.
223

----------
Assay text: Microsomal stability assay, rat liver microsomes
Assay conditions: female, Sprague-Dawley, rat, liver microsomes, pH 7.4, Microsomal stability assays: Half-life
Parameter measured: log10 half-life at 0.08 µM (log10 of the value in min)
// do not treat as linear: log10 of half-life at 0.08 µM, unit min

Given CC(Cc1ccc([N+](=O)[O-])cc1)NCCCc1ccc(F)cc1 (stereo not drawn) , state its recorded log10 half-life at 0.08 µM.
1.26

Given CC(Cc1ccc(F)cc1)NCCCc1ccc(NC=O)cc1 (stereo not drawn) , state its recorded log10 half-life at 0.08 µM.
1.48

Given CC(Cc1ccc(F)cc1)NCCCc1ccc([N+](=O)[O-])cc1 (stereo not drawn) , state its recorded log10 half-life at 0.08 µM.
1.38

Given Nc1ccc(CCCNC(CF)Cc2ccc(F)cc2)cc1 (stereo not drawn) , state its recorded log10 half-life at 0.08 µM.
1.56

Given CC(Cc1ccc(C(F)(F)F)cc1)NCCCc1ccncc1 (stereo not drawn) , state its recorded log10 half-life at 0.08 µM.
1.56

Given CC(Cc1ccc(F)cc1)NCCCc1ccncc1 (stereo not drawn) , state its recorded log10 half-life at 0.08 µM.
1.62

Given FCC(Cc1ccc(F)cc1)NCCCc1ccc(F)cc1 (stereo not drawn) , state its recorded log10 half-life at 0.08 µM.
1.08

Given CC(Cc1ccc(-c2cccnc2)cc1)NCCCc1ccc(F)cc1 (stereo not drawn) , state its recorded log10 half-life at 0.08 µM.
1.56

Given FCC(Cc1ccccc1)NCCCc1ccc(F)cc1 (stereo not drawn) , state its recorded log10 half-life at 0.08 µM.
1.08

Given CC(Cc1ccncc1)NCCCc1ccc(O)cc1 (stereo not drawn) , state its recorded log10 half-life at 0.08 µM.
1.48

Given CC(Cc1ccc(Cl)cc1)NCCCc1ccc(N)cc1 (stereo not drawn) , state its recorded log10 half-life at 0.08 µM.
1.56

Given CC(Cc1ccc(Br)cc1)NCCCc1ccc(I)cc1 (stereo not drawn) , state its recorded log10 half-life at 0.08 µM.
1.08

Given FCC(Cc1ccc(-c2cccnc2)cc1)NCCCc1ccc(F)cc1 (stereo not drawn) , state its recorded log10 half-life at 0.08 µM.
1.38

Given CC(Cc1ccc(F)c(F)c1)NCCCc1ccc(N)cc1 (stereo not drawn) , state its recorded log10 half-life at 0.08 µM.
1.78

Given CC(Cc1ccc(NC=O)cc1)NCCCc1ccc(F)cc1 (stereo not drawn) , state its recorded log10 half-life at 0.08 µM.
2.32

----------
Assay text: Microsomal stability assay, human liver microsomes
Record form. Attribute: Microsomal stability assays: Half-life. Fill in for each entry.
Write it as a number; the unit min goes unstated.

Given FCC(Cc1ccc(F)cc1)NCCCc1ccnc2ccccc12 (centres unmarked) , state its recorded Microsomal stability assays: Half-life.
6

Given CC(Cc1ccc(F)cc1)NCCCc1ccc(N(C)C)cc1 (centres unmarked) , state its recorded Microsomal stability assays: Half-life.
6

Given CC(Cc1ccc(-c2cccnc2)cc1)NCCCc1ccc(F)cc1 (centres unmarked) , state its recorded Microsomal stability assays: Half-life.
6

Given CC(Cc1ccc(N)cc1)NCCCc1ccc(F)cc1 (centres unmarked) , state its recorded Microsomal stability assays: Half-life.
54

Given CCOC(=O)c1ccc(CCCNC(C)Cc2ccc(F)cc2)cc1 (centres unmarked) , state its recorded Microsomal stability assays: Half-life.
6

Given CC(Cc1ccc(NC=O)cc1)NCCCc1ccc(F)cc1 (centres unmarked) , state its recorded Microsomal stability assays: Half-life.
90

Given FCC(Cc1ccc(-c2cccnc2)cc1)NCCCc1ccc(F)cc1 (centres unmarked) , state its recorded Microsomal stability assays: Half-life.
6

Given CC(Cc1ccccc1)NCCCc1ccc(-c2cncnc2)cc1 (centres unmarked) , state its recorded Microsomal stability assays: Half-life.
6

Given CC(Cc1ccccc1)NCCCc1ccc(I)cc1 (centres unmarked) [Compound 214] , state its recorded Microsomal stability assays: Half-life.
72

----------
Record form. Attribute: CLint scaled at 0.08 µM. Fill in for each entry.
Assay text: Microsomal stability assay, rat liver microsomes
Assay conditions: female, Sprague-Dawley, rat, liver microsomes, pH 7.4, Microsomal stability assays: Clearance
Write it as a number; the unit mL/min/kg goes unstated.

Given CC(Cc1ccccc1)NCCCc1ccncc1 (stereo not shown) [Compound 205] , state its recorded CLint scaled at 0.08 µM.
90.6

Given CC(=O)Nc1ccc(CCCNC(C)Cc2ccc(F)cc2)cc1 (stereo not shown) [Compound 66] , state its recorded CLint scaled at 0.08 µM.
30.7

Given Nc1ccc(CCCNC(CF)Cc2ccc(F)cc2)cc1 (stereo not shown) [Compound 107] , state its recorded CLint scaled at 0.08 µM.
82.2

Given CC(Cc1ccc(-c2cncnc2)cc1)NCCCc1ccc(Cl)cc1 (stereo not shown) [Compound 170] , state its recorded CLint scaled at 0.08 µM.
34.2

Given CC(Cc1ccc(F)cc1)NCCCc1ccc(-c2ccnn2C)cc1 (stereo not shown) [Compound 167] , state its recorded CLint scaled at 0.08 µM.
111

Given CC(Cc1ccccc1)NCCCc1ccc(C(F)(F)F)cc1 (stereo not shown) [Compound 194] , state its recorded CLint scaled at 0.08 µM.
138

Given CC(Cc1ccc([N+](=O)[O-])cc1)NCCCc1ccc(F)cc1 (stereo not shown) [Compound 117] , state its recorded CLint scaled at 0.08 µM.
148

Given COc1ccc(CCCNC(C)Cc2ccncc2)cc1 (stereo not shown) [Compound 173] , state its recorded CLint scaled at 0.08 µM.
126

----------
System under test: VMAT2 (Rattus norvegicus (Rat))
Assay conditions: rat brain synaptic vesicles; read-out: [3H]DTBZ binding (Ki) VMAT2
Record form. Attribute: log10 of Ki. Fill in for each entry.
// do not treat as linear: log10 of Ki, unit µM

Given COc1ccc(CC(C)N(C)CCc2ccccc2)cc1 (stereo not drawn) , state its recorded log10 of Ki.
1.08

Given CC(Cc1ccc(N)cc1)NCCc1ccccc1 (stereo not drawn) , state its recorded log10 of Ki.
1.23

Given COc1ccc(CC(C)NCCCCc2ccccc2)cc1OC (stereo not drawn) , state its recorded log10 of Ki.
0.04

Given CC(Cc1ccc(Br)cc1)NCCc1ccccc1 (stereo not drawn) , state its recorded log10 of Ki.
0.09

Given CC(Cc1ccc(Br)cc1)NCCCCc1ccccc1 (stereo not drawn) , state its recorded log10 of Ki.
-1.09

Given CC(CCc1ccccc1)N(C)CCCc1ccccc1 (stereo not drawn) , state its recorded log10 of Ki.
1.24

----------
Record form. Attribute: CLint scaled at 0.08 µM. Fill in for each entry.
Assay text: Microsomal stability assay, rat liver microsomes
Assay conditions: female, Sprague-Dawley, rat, liver microsomes, pH 7.4, Microsomal stability assays: Clearance
Write it as a number; the unit mL/min/kg goes unstated.

Given CC(Cc1ccccc1)NCCCc1ccc(-c2cncnc2)cc1 (stereo not shown) , state its recorded CLint scaled at 0.08 µM.
248

Given CC(Cc1ccc(F)cc1)NCCCc1ccncc1 (stereo not shown) , state its recorded CLint scaled at 0.08 µM.
71.8

Given COc1ccc(CCC(C)NC(C)Cc2ccccc2)cc1 (stereo not shown) , state its recorded CLint scaled at 0.08 µM.
414

Given FCC(Cc1ccccc1)NCCCc1ccc(F)cc1 (stereo not shown) , state its recorded CLint scaled at 0.08 µM.
253

Given CC(Cc1ccc([N+](=O)[O-])cc1)NCCCc1ccncc1 (stereo not shown) , state its recorded CLint scaled at 0.08 µM.
95.9

Given CC(Cc1ccc(F)cc1)NCCCc1ccc(Br)cc1 (stereo not shown) , state its recorded CLint scaled at 0.08 µM.
402

Given CC(Cc1ccccc1)NCCCc1ccc(-c2cccnc2)cc1 (stereo not shown) , state its recorded CLint scaled at 0.08 µM.
392

Given CC(Cc1ccc(N)cc1)NCCCc1ccccc1 (stereo not shown) , state its recorded CLint scaled at 0.08 µM.
17.9

----------
Record form. Attribute: half-life at 0.08 µM. Fill in for each entry.
Assay text: Microsomal stability assay, rat liver microsomes
Assay conditions: female, Sprague-Dawley, rat, liver microsomes, pH 7.4, Microsomal stability assays: Half-life

Given CC(Cc1ccc(-c2cncnc2)cc1)NCCCc1ccc(Cl)cc1 (stereo not drawn) [Compound 170] , state its recorded half-life at 0.08 µM.
84 min

Given CC(Cc1ccc([N+](=O)[O-])cc1)NCCCc1ccncc1 (stereo not drawn) [Compound 114] , state its recorded half-life at 0.08 µM.
30 min

Given CC(Cc1ccc(NC=O)cc1)NCCCc1ccccc1 (stereo not drawn) [Compound 78] , state its recorded half-life at 0.08 µM.
18 min

Given FCC(Cc1ccc(-c2cncnc2)cc1)NCCCc1ccc(F)cc1 (stereo not drawn) [Compound 69] , state its recorded half-life at 0.08 µM.
36 min

Given FCC(Cc1ccc(F)cc1)NCCCc1ccncc1 (stereo not drawn) [Compound 142] , state its recorded half-life at 0.08 µM.
30 min

Given CC(Cc1ccc(Br)cc1)NCCCc1ccc(F)cc1 (stereo not drawn) [Compound 200] , state its recorded half-life at 0.08 µM.
18 min

Given OCC(Cc1ccc(F)cc1)NCCCc1ccc(Br)cc1 (stereo not drawn) [Compound 155] , state its recorded half-life at 0.08 µM.
< 6 min

Given CC(Cc1ccc(NC=O)cc1)N(C=O)CCCc1ccccc1 (stereo not drawn) [Compound 76] , state its recorded half-life at 0.08 µM.
48 min

Given Fc1ccc(CCCNC(Cc2ccc(F)cc2)C(F)F)cc1 (stereo not drawn) [Compound 81] , state its recorded half-life at 0.08 µM.
36 min

Given CC(Cc1ccccc1)NCCCc1ccncc1 (stereo not drawn) [Compound 205] , state its recorded half-life at 0.08 µM.
30 min

Given O=CNc1ccc(CC(CF)NCCCc2ccc(F)cc2)cc1 (stereo not drawn) [Compound 73] , state its recorded half-life at 0.08 µM.
66 min

Given CC(Cc1ccc(F)c(F)c1)NCCCc1ccncc1 (stereo not drawn) [Compound 96] , state its recorded half-life at 0.08 µM.
30 min

Given CC(Cc1ccc(F)cc1)NCCCc1ccc(N(C)C)cc1 (stereo not drawn) [Compound 157] , state its recorded half-life at 0.08 µM.
< 6 min

Given CC(Cc1ccccc1)NCCCc1ccc([N+](=O)[O-])cc1 (stereo not drawn) [Compound 222] , state its recorded half-life at 0.08 µM.
< 6 min

Given CC(Cc1ccc(F)cc1)NCCCc1ccc(Cl)cc1 (stereo not drawn) [Compound 189] , state its recorded half-life at 0.08 µM.
< 6 min

Given CC(Cc1ccncc1)NCCCc1ccc(Br)cc1 (stereo not drawn) [Compound 169] , state its recorded half-life at 0.08 µM.
12 min

Given CC(Cc1ccc([N+](=O)[O-])cc1)NCCCc1ccc(Br)cc1 (stereo not drawn) [Compound 122] , state its recorded half-life at 0.08 µM.
< 6 min

Given CC(Cc1ccc(N)cc1)NCCCc1ccc(F)cc1 (stereo not drawn) [Compound 110] , state its recorded half-life at 0.08 µM.
> 240 min

Given CC(Cc1ccccc1)NCCCc1ccc(S)cc1 (stereo not drawn) [Compound 216] , state its recorded half-life at 0.08 µM.
18 min

Given CC(Cc1ccc(F)cc1)NCCCn1cccn1 (stereo not drawn) [Compound 132] , state its recorded half-life at 0.08 µM.
18 min

Given CC(Cc1ccccc1)NCCCc1ccc(I)cc1 (stereo not drawn) [Compound 215] , state its recorded half-life at 0.08 µM.
18 min

// provenance: patent US11999676B2
